Items are presented alongside their recorded binding to HLA-A2.1 (column 3; no allele head shown for these rows).
MEASUREMENT_TARGET: HLA-A*0201 (HLA-A2.1) (Homo sapiens, UniProt P04439, D140Y/D185E/D98H/E176V/E277Q/G131W/G231S/I119V/I121R/I166T/I218V/L300P/L318F/N151K/N90K/P208A/P217A/Q86G/Q94H/R138H/R169H/T345S)
PROCEDURE_DETAILS: biochemical
Assay type: binding
PROPERTY_LABEL: binding to HLA-A2.1 (column 3; no allele head shown for these rows)

- RESIDUE_SEQUENCE: "ALGLVCVQAA"
  RELATION: "="
  NUMERIC_VALUE: 0.0002
- RESIDUE_SEQUENCE: "IIAREGDCA"
  RELATION: "="
  NUMERIC_VALUE: 0
- RESIDUE_SEQUENCE: "RKLLTQDLV"
  RELATION: "="
  NUMERIC_VALUE: 0
- RESIDUE_SEQUENCE: "VLGTLEEVPT"
  RELATION: "="
  NUMERIC_VALUE: 0.0004
- RESIDUE_SEQUENCE: "LIIVLVMIAM"
  RELATION: "="
  NUMERIC_VALUE: 0.0003
- RESIDUE_SEQUENCE: "DLESEFQAA"
  RELATION: "="
  NUMERIC_VALUE: 0
- RESIDUE_SEQUENCE: "ITKKVADLV"
  RELATION: "="
  NUMERIC_VALUE: 0
- RESIDUE_SEQUENCE: "GTLEEVPTA"
  RELATION: "="
  NUMERIC_VALUE: 0.013
- RESIDUE_SEQUENCE: "IMPKTGFLII"
  RELATION: "="
  NUMERIC_VALUE: 0.0007
- RESIDUE_SEQUENCE: "LVGFLLLKYRA"
  RELATION: "="
  NUMERIC_VALUE: 0.0004
- RESIDUE_SEQUENCE: "SLFRAVITKKVADLV"
  RELATION: "="
  NUMERIC_VALUE: 0.0004
- RESIDUE_SEQUENCE: "GASSFSTTI"
  RELATION: "="
  NUMERIC_VALUE: 0
- RESIDUE_SEQUENCE: "EIWEELSV"
  RELATION: "="
  NUMERIC_VALUE: 0
- RESIDUE_SEQUENCE: "ALAETSYVKV"
  RELATION: "="
  NUMERIC_VALUE: 0.017
- RESIDUE_SEQUENCE: "KMADLVGFLV"
  RELATION: "="
  NUMERIC_VALUE: 1.5
- RESIDUE_SEQUENCE: "KAEMLGSVV"
  RELATION: "="
  NUMERIC_VALUE: 0
- RESIDUE_SEQUENCE: "YLEYGRCRTVI"
  RELATION: "="
  NUMERIC_VALUE: 0.0006
- RESIDUE_SEQUENCE: "VMIAMEGGHV"
  RELATION: "="
  NUMERIC_VALUE: 0.053
- RESIDUE_SEQUENCE: "QMMPKTGFLV"
  RELATION: "="
  NUMERIC_VALUE: 0.050
- RESIDUE_SEQUENCE: "WMELSVMEV"
  RELATION: "="
  NUMERIC_VALUE: 0.041
- RESIDUE_SEQUENCE: "PVTKAEMLESV"
  RELATION: "="
  NUMERIC_VALUE: 0
- RESIDUE_SEQUENCE: "VTKAEMLGSV"
  RELATION: "<"
  NUMERIC_VALUE: 0.0002
- RESIDUE_SEQUENCE: "CILESCFRAVI"
  RELATION: "="
  NUMERIC_VALUE: 0.0017
- RESIDUE_SEQUENCE: "KAEMLESVL"
  RELATION: "="
  NUMERIC_VALUE: 0
- RESIDUE_SEQUENCE: "EADPTGHSYV"
  RELATION: "="
  NUMERIC_VALUE: 0
- RESIDUE_SEQUENCE: "ETSYVKVLEY"
  RELATION: "="
  NUMERIC_VALUE: 0
- RESIDUE_SEQUENCE: "QIMPKTGFLII"
  RELATION: "="
  NUMERIC_VALUE: 0.0003
- RESIDUE_SEQUENCE: "DLESEFQAAI"
  RELATION: "="
  NUMERIC_VALUE: 0
- RESIDUE_SEQUENCE: "ATSSSSPLV"
  RELATION: "="
  NUMERIC_VALUE: 0.0007
- RESIDUE_SEQUENCE: "KTGLLIIVLA"
  RELATION: "<"
  NUMERIC_VALUE: 0.0002
- RESIDUE_SEQUENCE: "DLVQEKYLEYRQV"
  RELATION: "="
  NUMERIC_VALUE: 0
- RESIDUE_SEQUENCE: "STSCILESL"
  RELATION: "="
  NUMERIC_VALUE: 0.0002
- RESIDUE_SEQUENCE: "MIAMEGGHA"
  RELATION: "="
  NUMERIC_VALUE: 0.0005
- RESIDUE_SEQUENCE: "FLLLKYRA"
  RELATION: "="
  NUMERIC_VALUE: 0.0007
- RESIDUE_SEQUENCE: "LAETSYVKVL"
  RELATION: "="
  NUMERIC_VALUE: 0
- RESIDUE_SEQUENCE: "RVRFFFPSL"
  RELATION: "="
  NUMERIC_VALUE: 0.0001
- RESIDUE_SEQUENCE: "WEELSVMEV"
  RELATION: "="
  NUMERIC_VALUE: 0
- RESIDUE_SEQUENCE: "EALEAQQEAL"
  RELATION: "="
  NUMERIC_VALUE: 0
- RESIDUE_SEQUENCE: "VMVTCLGLSV"
  RELATION: "="
  NUMERIC_VALUE: 0.30
- RESIDUE_SEQUENCE: "YLEYGRCRTV"
  RELATION: "="
  NUMERIC_VALUE: 0.0097
- RESIDUE_SEQUENCE: "VADLVGFLLL"
  RELATION: "="
  NUMERIC_VALUE: 0.0008
- RESIDUE_SEQUENCE: "EIWEELSVM"
  RELATION: "="
  NUMERIC_VALUE: 0
- RESIDUE_SEQUENCE: "VIPHAMSSCGV"
  RELATION: "="
  NUMERIC_VALUE: 1.4
- RESIDUE_SEQUENCE: "GLSYDGLLG"
  RELATION: "="
  NUMERIC_VALUE: 0
- RESIDUE_SEQUENCE: "AMGLVCVQV"
  RELATION: "="
  NUMERIC_VALUE: 0.012
- RESIDUE_SEQUENCE: "LLGDNQIMP"
  RELATION: "="
  NUMERIC_VALUE: 0.0001
- RESIDUE_SEQUENCE: "IIVLVMIA"
  RELATION: "="
  NUMERIC_VALUE: 0.0002
- RESIDUE_SEQUENCE: "GLLGDNQIM"
  RELATION: "="
  NUMERIC_VALUE: 0.0054
- RESIDUE_SEQUENCE: "SLQLVFGI"
  RELATION: "="
  NUMERIC_VALUE: 0.0094
- RESIDUE_SEQUENCE: "IIAIEGDCA"
  RELATION: "="
  NUMERIC_VALUE: 0
- RESIDUE_SEQUENCE: "KVLEYVIKV"
  RELATION: "="
  NUMERIC_VALUE: 0.095
- RESIDUE_SEQUENCE: "KAGLLIIVLA"
  RELATION: "<"
  NUMERIC_VALUE: 0.0002
- RESIDUE_SEQUENCE: "SESLQLVFGI"
  RELATION: "="
  NUMERIC_VALUE: 0
- RESIDUE_SEQUENCE: "CILESLFRAVI"
  RELATION: "="
  NUMERIC_VALUE: 0.0030
- RESIDUE_SEQUENCE: "MLGSVVGNWQYFFPV"
  RELATION: "="
  NUMERIC_VALUE: 0.012
- RESIDUE_SEQUENCE: "QLVFGIDVKEA"
  RELATION: "="
  NUMERIC_VALUE: 0.0001
- RESIDUE_SEQUENCE: "SMHCKPEEV"
  RELATION: "="
  NUMERIC_VALUE: 0.018
- RESIDUE_SEQUENCE: "ILLWQPIPV"
  RELATION: "="
  NUMERIC_VALUE: 1.4
- RESIDUE_SEQUENCE: "LMLGTLEEV"
  RELATION: "="
  NUMERIC_VALUE: 0.13
- RESIDUE_SEQUENCE: "GLVCVQAA"
  RELATION: "="
  NUMERIC_VALUE: 0.0008
- RESIDUE_SEQUENCE: "PTGHSYVLVT"
  RELATION: "="
  NUMERIC_VALUE: 0
- RESIDUE_SEQUENCE: "VTKAEMLESV"
  RELATION: "="
  NUMERIC_VALUE: 0
- RESIDUE_SEQUENCE: "ALREEEEGV"
  RELATION: "="
  NUMERIC_VALUE: 0.0056
- RESIDUE_SEQUENCE: "YVKVLEYVI"
  RELATION: "="
  NUMERIC_VALUE: 0.0002
